# TARGET_SYSTEM: hRSV FTM- NN protein (membrane anchorless form of the Long fusion protein, 70 kDa) (hRSV strain Long)
# TEST: SPR (Biacore T100), FTM- NN amine-coupled, 1:1 Langmuir fit
QUANTITY_KIND: Kd (nM)
One number for each entry, in nM.

Nanobody 191D3 (VHH) VHH: EVQLVESGGGLVQAGGSLRLSCEASGRTYSRYGMGWFRQAPGKEREFVAAVSRLSGPRTVYADSVKGRFTISRDNAENTVYLQMNSLKPEDTAVYTCAAELTNRNSGAYYYAWAYDYWGQGTQVTVSS: 1.9

Attention now shifts to the item below.
Prompt line: Kindly indicate its recorded Kd. Item: Nanobody 15B3 (VHH) VHH: EVQLVESGGGLVQPGGSLRLSCAASGLTLDYYALGWFRQAPGKEREGVSCISSSDHSTTYTDSVKGRFTISWDNAKNTLYLQMNSLKPGDTAVYYCAADPALGCYSGSYYPRYDYWGQGTQVTVSS
Response line: 0.67
